Tested on: NCI-H23 lung
Assay: NCI tumour cell line growth inhibition, 48 h
value.type: TGI

// solved cases for TGI follow
compound: CC1(C)OCC(C2OC(N3O[C@H](CI)C[C@@H]3c3ccccc3)C3OC(C)(C)OC23)O1 (some centres undefined)
TGI: > 100 µM
--
compound: CN(C)CCNc1ccc2c(=O)n(CCN(C)C)c(=O)n3c4ccc(N)cc4c(=O)c1c23
TGI: 0.215 µM
--
compound: O=C1c2ccccc2-c2ccc(N=[N+]([O-])c3ccc4c(c3)C(=O)c3ccccc3-4)cc21
TGI: > 100 µM
--
compound: C=C[C@H]1CN2CCc3c([nH]c4c([C@H]5CCCN5C)c(O)ccc34)[C@@H]2C[C@@H]1C[C@H]1c2[nH]c3ccccc3c2CCN1C
TGI: 3.56 µM
--
compound: CCC1(N=[N+]=[N-])C(=O)Nc2cc(C)ccc2C1=O (centres undefined)
TGI: > 100 µM
--
compound: CC1=NN(C(=O)Cc2ccccc2)C(=O)/C1=C\C=C\c1ccccc1
TGI: > 100 µM
--
compound: CNC(=O)CCNC(=O)CCC(=O)OC
TGI: > 100 µM
--
compound: COC(=N)C12C(N)=NC(OC)(OC)C1(C#N)C21C(=O)N(c2ccccc2)N=C1C (centres undefined)
TGI: > 100 µM

Task: For the compound c1ccc(CCN(Cc2nc3ccccc3[nH]2)Cc2nc3ccccc3[nH]2)cc1 , what TGI is on record?
Result: 37.9 µM

---

Test system: SW-620 colon
Assay: NCI tumour cell line growth inhibition, 48 h; in the data active means GI50 below about 0.43 µM; inactive means the rest
Your reply should match one of these outcome classes. active, inactive

Solved entries:
smiles.data: CC1=Cc2cc3[n-]c(cc4nc(cc5[n-]c(cc1n2)cc5C)C(C)=C4CCC(=O)O)c(CCC(=O)O)c3C.[Pd+2]
classification: inactive
//
smiles.data: COc1ccc(/C=C\c2cc(OC)c(OC)c(OC)c2)cc1OCC(=O)Nc1nc2ccc(C(F)(F)F)cc2s1
classification: inactive
//
smiles.data: Cc1cc2c(F)c(Oc3ncnn4cc(OC[C@@H](C)OC(=O)[C@H](C)N)c(C)c34)ccc2[nH]1
classification: inactive
//
smiles.data: O=C(Nc1ncc(Cc2ccccc2Cl)s1)c1ccc2c(c1)OCCO2
classification: active
//
smiles.data: Fc1ccc(-c2ccc(-c3nnc(-c4cc(F)c(Cl)cc4Cl)o3)o2)cc1Cl
classification: inactive

Task: Hello, I am checking results. What call was entered for Cc1ccc2c(N)c(C(=O)N[C@H]3CCc4cc(N5CC6CCC(C5)N6)ccc4C3)sc2n1 ?
Result: active

Task: Record: C/C=C(\C)C(=O)O[C@H]1C=CC(=O)O[C@H]1CNC(=O)[C@H](C)O
Result: inactive

Task: Record: O=C(Oc1ccc(CCl)cc1)c1ccccc1
Result: active

Task: Record: CC1(C)N=C(N)N=C(N)N1c1cc(Cl)ccc1Cl
Result: inactive

Task: Record: C[C@]12CC[C@@H]3c4ccc(O)cc4CC[C@H]3[C@@H]1CC[C@@H]2NS(=O)(=O)Cc1ccc(Cl)cc1
Result: inactive

---

Test system: SR leukemia
Experiment: NCI tumour cell line growth inhibition, 48 h
Known GI50 of a selection of compounds

// solved cases for GI50 follow
compound: Cc1ccc2c(=O)c3cccc(CC(=O)O)c3oc2c1C
measured.target: SR leukemia
value.type: GI50
measurement: > 100 µM
--
compound: O=C1CCC2(C=C(Br)C(=O)C(Br)=C2)O1
measured.target: SR leukemia
value.type: GI50
measurement: 2.59 µM
--
compound: O=C1OC(=O)C2C1C1(c3ccccc3)C(c3ccccc3)=C(c3ccccc3)C2(c2ccccc2)S1=O (stereo not drawn)
measured.target: SR leukemia
value.type: GI50
measurement: 49.3 µM
--
compound: CCOC(=O)Oc1c(OC)cc(C(=O)O[C@@H]2C[C@@H]3CN4CCc5c([nH]c6cc(OC)ccc56)[C@H]4C[C@@H]3[C@H](C(=O)OC)[C@H]2OC)cc1OC
measured.target: SR leukemia
value.type: GI50
measurement: 3.61 µM
--
compound: O=C(NOCC1CC1)c1ccc(F)c(F)c1Nc1ccc(I)cc1Cl
measured.target: SR leukemia
value.type: GI50
measurement: 3.04 µM
--
compound: CC[N+](CC)(CC)CCCn1c2c(c3ccccc3c1=O)C(=O)c1ccccc1-2
measured.target: SR leukemia
value.type: GI50
measurement: 3.56 µM
--
compound: S=C(N/N=C/c1ccccn1)Nc1ccccn1
measured.target: SR leukemia
value.type: GI50
measurement: 0.52 µM

We next turn to a different compound, shown below.
Task: Could you share what GI50 was measured for N.N.NC(CS)C(=O)[O-].NC(CS)C(=O)[O-].[Pt+4] (stereo not drawn) , tested on SR leukemia?
Result: > 50 µM

---

Test system: UACC-257 melanoma
Experiment: NCI tumour cell line growth inhibition, 48 h
Known TGI of a selection of molecules

molecule: COC(=O)C1=C(O)C(O)=C(C(=O)OC)C1
TGI: > 100 µM

We next turn to a different molecule, shown below.
Task: For the molecule COC(=O)c1nc(NC#N)[nH]c(=O)c1C , what TGI is on record?
Result: > 100 µM

---

Known GI50 of a selection of compounds
Test system: BT-549 breast
Test: NCI tumour cell line growth inhibition, 48 h

Task: For the compound Cc1ccc2c(=O)c3cccc(CC(=O)O)c3oc2c1C , what GI50 is on record?
Result: > 100 µM

---

System: HOP-62 NSCLC
Assay: NCI tumour cell line growth inhibition, 48 h
value.type: TGI

// solved cases for TGI follow
compound: [N-]=[N+]=Nc1ccc2c(c1)Sc1ccccc1N2CCCCCl
value.type: TGI
measurement: > 100 µM

compound: CS(=O)c1ccc(COP(N)(=O)N(CCCl)CCCl)cc1 (stereo unspecified)
value.type: TGI
measurement: > 100 µM

compound: O=C1C(=O)N(c2ccc(Cl)c(Cl)c2)C(=O)C(=O)C1c1nc2ccccc2o1
value.type: TGI
measurement: > 100 µM

Task: For the compound O=C(Oc1ccc(CCl)cc1)c1ccccc1 , what TGI is on record?
Result: 0.333 µM

Task: Record: CCN(CC)CCCCCCCNc1c2ccc(Cl)cc2nc2ccc(OC)cc12
Result: 2.54 µM

Task: Record: CCC(=O)COc1ccc(NC(NC(=O)C(C(F)(F)F)C(F)(F)F)(C(F)(F)F)C(F)(F)F)cc1
Result: > 100 µM

Task: Record: COc1ccc2c3ccc4c(c3n(C)c2c1)C(=O)c1ccccc1C4=O
Result: > 100 µM

Task: Record: O=C(O)c1cc2c(cn1)[nH]c1ccccc12
Result: > 100 µM

Task: Record: C[C@]12CC(c3ccccc3O1)C(C(=O)NC13CC4CC(CC(C4)C1)C3)C(=O)N2 (stereo partly specified)
Result: > 100 µM

Task: Record: C=C1C(=O)OC2CC3(CO3)C3C(O)C(O)CC3(C)CC12 (stereo unspecified)
Result: > 100 µM

Task: Record: O=C1OC2(c3ccccc3Oc3ccccc32)c2ccccc21
Result: > 100 µM

Task: Record: CC(=O)OC1COC(n2c(N)c(C#N)c(C)c(C#N)c2=S)C(OC(C)=O)C1OC(C)=O (stereo unspecified)
Result: > 100 µM

Task: Record: COc1ccc(-c2nc(-c3cn(C)c4ncccc34)cs2)cc1
Result: > 100 µM

Task: Record: CCN(CC)Cc1cc(Nc2c3ccccc3nc3c2[nH]c2ccccc23)ccc1O
Result: 3.16 µM

Task: Record: COc1nc(C)cc2c(=O)n(-c3ccccc3)n(CCCN3CCN(c4ccc(Cl)cc4)CC3)c(=O)c12
Result: > 50 µM

Task: Record: COc1ccc(OC)c2nc3c(C(=O)NCCN(C)C)cccc3nc12
Result: 35.7 µM

Task: Record: O=C(Nc1nc(C23CC4CC(CC(C4)C2)C3)cs1)c1cc2cc(Br)cc(Br)c2oc1=O
Result: > 100 µM

Task: Record: C=C1C(=O)O[C@H]2[C@H]1CC/C(Cn1cc(-c3ccccc3)nn1)=C\CC[C@@]1(C)O[C@@H]21
Result: 15.1 µM

Task: Record: CC(=O)c1ccc2c(c1)oc(=O)n2CCN1CCCCC1
Result: > 100 µM

Task: Record: S=C(Nc1ccc(Cl)cc1)Nc1ccc(Cl)cc1 (tested in a mixture with another compound)
Result: 7.2 µM

Task: Record: N#CC12C3C4CC5C6C4C1C6C(O)(C53)N2Cc1ccccc1 (stereo unspecified)
Result: > 100 µM

---

Tested on: OVCAR-8 ovarian
Experiment: NCI tumour cell line growth inhibition, 48 h
value.type: TGI

Task: For the molecule [C-]#[O+].[C-]#[O+].[Ir].[O-]c1cccc2cccnc12 , what TGI is on record?
Result: > 100 µM

Task: Record: CC(C)CC1c2[nH]c3ccccc3c2C[C@H]2C(=O)NC(CCC(=O)OC(C)(C)C)C(=O)N12 (stereo partly drawn)
Result: > 100 µM

Task: Record: CC1N(C)C(=O)OC12CCN(CCCC(=O)c1ccc(F)cc1)CC2 (stereo not drawn)
Result: > 100 µM

Task: Record: CCOC(=O)c1ccc(N2C(=O)/C(=C\OC)c3ccccc3C2=O)cc1
Result: > 100 µM

Task: Record: N#CC12C3C4CC5C6C4C1C6C(O)(C53)N2Cc1ccccc1 (stereo not drawn)
Result: > 100 µM

Task: Record: Cc1sc2nc3n(c(=O)c2c1C)N=C(c1ccc(Cl)cc1)CS3
Result: > 100 µM

Task: Record: CNC(=O)CCNC(=O)CCC(=O)OC
Result: > 100 µM

Task: Record: C=CCOCn1ccc(=O)[nH]c1=O
Result: > 100 µM

Task: Record: CC1(O)/C(=N/O)CC2CC1C2(C)C (stereo not drawn)
Result: > 100 µM

Task: Record: COc1cccc(-c2cc(=O)c3cc(N)ccc3[nH]2)c1
Result: > 100 µM

Task: Record: C=C1C(=O)O[C@H]2[C@H]1CC/C(Cn1cc(-c3ccccc3)nn1)=C\CC[C@@]1(C)O[C@@H]21
Result: 8.88 µM

Task: Record: O=S1(=O)C[C@@H](O)[C@H](O)CS1
Result: > 100 µM

Task: Record: Cc1c2c(n(CCc3ccccc3)c1C)NN=C(C#N)S2(=O)=O
Result: > 100 µM

Task: Record: CC1(C)N=C(N)N=C(N)N1c1cc(Cl)ccc1Cl
Result: > 100 µM

Task: Record: OC1CC(O)c2c(Cl)sc(Cl)c21 (stereo not drawn)
Result: > 100 µM

Task: Record: O=C1CCC2(C=C(Br)C(=O)C(Br)=C2)O1
Result: 11.5 µM

Task: Record: C=C1CC[C@@H]2C(C)(C)CCC[C@@]2(C)[C@@H]1Cc1cc(O)ccc1O
Result: 15.1 µM

Task: Record: CC(O)C(O)C(N)CC=O (stereo not drawn)
Result: > 500 µM

Task: Record: C=C(CN1CCc2ccccc2C1)c1ccc(C(=O)Nc2ccc(N)cc2)cc1
Result: 77.7 µM

Task: Record: CN(C)CCCNC(=O)c1cc(NC(=O)c2cc(NC(=O)c3cc(NC(=O)CCc4c[nH]c5ccccc45)cn3C)cn2C)cn1C
Result: > 100 µM

Task: Record: CC(C(=O)Oc1ccc2ccccc2c1-c1c(O)ccc2ccccc12)c1ccccc1 (stereo not drawn)
Result: 50.2 µM

Task: Record: COC12C=CC(CC1)C1C(=O)c3c(C)c(C)n(C)c3C(=O)C12 (stereo not drawn)
Result: > 100 µM

Task: Record: CC1(C)C(=O)N=C(N)N1C(=O)OCc1ccccc1
Result: > 100 µM
